# test name: qHTS RealTime-Glo MT Cell Viability Assay in HepG2 cells - 24 hour (AID 1224867); further: nearly all actives have a fitted effect of over 50% in size
# condition parameters: RealTime-Glo luminescence; series mostly up to 76.8 µM
Records with an inconclusive call do not appear. Active and inactive are the calls of the source. The call rests on the fitted dose curve; in most records, active means well fitted cell-killing curve with a large enough effect in the repeat runs; inconclusive means weak or mixed curves; inactive means flat fitted curve, though single readings scatter.
outcome measure: outcome

[
  {
    "molecule": "CC(=O)C1CCOC1=O (stereo not drawn)",
    "outcome measure": "outcome",
    "value observed": "inactive"
  },
  {
    "molecule": "FC(F)(F)c1ccc(Cl)cc1",
    "outcome measure": "outcome",
    "value observed": "inactive"
  },
  {
    "molecule": "Nc1nc(N)nc(NC2CC2)n1",
    "outcome measure": "outcome",
    "value observed": "inactive"
  }
]
